Cited source for all entries: patent US8012974B2

- Assay system: JAK3: Recombinant human kinase domain (810-1124) (Homo sapiens, UniProt P52333)
- Construct: JAK3: Recombinant human kinase domain (810-1124)
- Sequence (P52333 810-1124): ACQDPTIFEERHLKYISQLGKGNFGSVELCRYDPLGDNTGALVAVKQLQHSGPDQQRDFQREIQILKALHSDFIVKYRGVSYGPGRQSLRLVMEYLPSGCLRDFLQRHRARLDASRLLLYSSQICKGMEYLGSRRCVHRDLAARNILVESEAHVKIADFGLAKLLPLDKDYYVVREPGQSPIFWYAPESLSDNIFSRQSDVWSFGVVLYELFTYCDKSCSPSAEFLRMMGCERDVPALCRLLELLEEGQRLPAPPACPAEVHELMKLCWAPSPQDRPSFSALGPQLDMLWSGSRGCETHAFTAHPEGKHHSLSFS
- Measurement protocol: Determination of IC50 of Janus Kinase (JAK) inhibition, JAK3, radioactive end-point assay with 33P-ATP
- Condition description: no additive; 0.1 nM JAK3, ATP 1.5 uM, peptide 50 uM, 20 minutes; read-out: Ic50 h-jak3-sf21-c: no additive
// values below are reported IC50
Only the number, expressed in nM, is required.

query: Tell me the measured IC50 of `O=C(NCC1CCCCC1)Nc1cnc2[nH]ccc2n1` , please.
result: 326

query: Also check `O=C(NCCc1ccccc1)Nc1cnc2[nH]ccc2n1`
result: 144
